Taken from patent US20170128518A1.

- Test system: OPM2 cell line (WT)
- protocol.text: MTS assay, OPM2 WT
- Assay type: cell-based
- reported.conditions: Homo sapiens, OPM-2
pIC50: −log10 of the molar value.
readout: pIC50

[[record]]
sample_smiles = "CC(C)C[C@H](NC(=O)[C@H](Cc1ccccc1)NC(=O)c1cnccn1)B(O)O"
assay_result = 8.21

